molecular target: UniProt:P08684
Sequence (P08684 whole entry): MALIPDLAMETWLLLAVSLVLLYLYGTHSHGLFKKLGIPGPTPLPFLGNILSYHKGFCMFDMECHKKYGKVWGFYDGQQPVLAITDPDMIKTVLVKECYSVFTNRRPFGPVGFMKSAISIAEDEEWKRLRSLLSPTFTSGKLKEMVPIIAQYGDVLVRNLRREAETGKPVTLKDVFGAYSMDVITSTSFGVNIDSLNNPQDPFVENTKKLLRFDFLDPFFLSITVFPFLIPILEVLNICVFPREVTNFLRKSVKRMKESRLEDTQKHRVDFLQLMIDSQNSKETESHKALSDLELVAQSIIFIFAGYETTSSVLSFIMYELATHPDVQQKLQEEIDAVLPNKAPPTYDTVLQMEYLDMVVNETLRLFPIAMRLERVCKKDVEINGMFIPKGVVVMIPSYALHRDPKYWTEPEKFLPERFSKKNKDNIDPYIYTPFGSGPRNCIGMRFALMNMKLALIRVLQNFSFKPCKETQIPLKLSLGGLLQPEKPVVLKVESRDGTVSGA
Reported property: IC50

CCCCCc1ccc(NC(=O)COc2cc(C)nc3ccc(OC)cc23)cc1; > 30 µM

---

assay: Half life in human liver S9 fraction at 2 uM by HPLC-MS/MS analysis; type: ADME, tissue-based
Reported property: half-life at 2 µM (min)

COc1ccc2nc(C)cc(OCC(=O)Nc3ccc(C)c(C)c3)c2c1; 14.2
COc1ccc2nc(C)cc(OCC(=O)Nc3ccc4c(c3)CCC4)c2c1; 11.7
COc1ccc2nc(C)cc(OCC(=O)Nc3ccc4c(c3)CCCC4)c2c1; 16.2
CCCc1ccc(NC(=O)COc2cc(C)nc3ccc(OC)cc23)cc1; 30.2
COc1ccc2nc(C)cc(OCC(=O)Nc3ccc(C)cc3)c2c1; 25.4
CCCCc1ccc(NC(=O)COc2cc(C)nc3ccc(OC)cc23)cc1; 13.7
CCc1ccc(NC(=O)COc2cc(C)nc3ccc(OC)cc23)cc1; 12.8
CCCCCc1ccc(NC(=O)COc2cc(C)nc3ccc(OC)cc23)cc1; 19.4

---

assay: Permeability of the compound at 1 uM […] by PAMPA; type: physicochemical; details: read-out: permeability
MET means recorded Papp at 1 µM is 2 ×10⁻⁶ cm/s or above; NOT MET means it is below 2 ×10⁻⁶ cm/s.

COc1ccc2nc(C)cc(OCC(=O)Nc3ccc(C)c(C)c3)c2c1; MET
CCCc1ccc(NC(=O)COc2cc(C)nc3ccc(OC)cc23)cc1; NOT MET
COc1ccc2nc(C)cc(OCC(=O)Nc3ccc4c(c3)CCC4)c2c1; MET
CCCCCc1ccc(NC(=O)COc2cc(C)nc3ccc(OC)cc23)cc1; NOT MET
COc1ccc2nc(C)cc(OCC(=O)Nc3ccc(C)cc3)c2c1; MET

---

assay: Thermodynamic solubility of the compound in acetate buffer at pH 4 after 24 hrs by HPLC method; type: physicochemical; settings: read-out: Therm_solubility
Recorded solubility thermodynamic at 24 h for the following compounds
Reported property: solubility thermodynamic at 24 h (µM)

COc1ccc2nc(C)cc(OCC(=O)Nc3ccc4c(c3)CCC4)c2c1; 120
CCCCCc1ccc(NC(=O)COc2cc(C)nc3ccc(OC)cc23)cc1; 20
COc1ccc2nc(C)cc(OCC(=O)Nc3ccc4c(c3)CCCC4)c2c1; 30
COc1ccc2nc(C)cc(OCC(=O)Nc3ccc(C)c(C)c3)c2c1; 410
CCc1ccc(NC(=O)COc2cc(C)nc3ccc(OC)cc23)cc1; 430
CCCc1ccc(NC(=O)COc2cc(C)nc3ccc(OC)cc23)cc1; 90
CCCCc1ccc(NC(=O)COc2cc(C)nc3ccc(OC)cc23)cc1; 50
COc1ccc2nc(C)cc(OCC(=O)Nc3ccc(C)cc3)c2c1; 2100

---

target: Cytochrome P450 1A2 (Homo sapiens)
Sequence (P05177 whole entry): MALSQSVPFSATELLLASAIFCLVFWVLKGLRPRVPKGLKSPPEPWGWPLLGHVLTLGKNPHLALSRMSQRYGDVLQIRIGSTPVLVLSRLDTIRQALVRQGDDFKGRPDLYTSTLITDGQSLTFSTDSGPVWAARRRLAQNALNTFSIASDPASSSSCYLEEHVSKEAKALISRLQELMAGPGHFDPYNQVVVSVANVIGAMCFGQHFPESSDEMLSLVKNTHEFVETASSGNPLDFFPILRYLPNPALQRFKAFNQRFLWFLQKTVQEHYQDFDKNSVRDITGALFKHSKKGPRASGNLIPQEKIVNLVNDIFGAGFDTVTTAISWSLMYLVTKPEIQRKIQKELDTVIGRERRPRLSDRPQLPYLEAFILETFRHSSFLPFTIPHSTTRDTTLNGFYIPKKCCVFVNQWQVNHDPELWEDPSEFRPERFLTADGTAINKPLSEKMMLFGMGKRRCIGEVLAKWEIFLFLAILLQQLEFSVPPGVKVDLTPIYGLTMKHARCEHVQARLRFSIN
pIC50: −log10 of the molar value.
Reported property: pIC50

CCCCCc1ccc(NC(=O)COc2cc(C)nc3ccc(OC)cc23)cc1; < 4.52

---

test: Cytotoxicity against human HaCaT cells assessed as viability at 10 uM after 72 hrs by MTT assay relative to control; type: cell-based; details: read-out: Activity
Reported property: viability at 72 h, 10 µM

CCCc1ccc(NC(=O)COc2cc(C)nc3ccc(OC)cc23)cc1; 86%
COc1ccc2nc(C)cc(OCC(=O)Nc3ccc4c(c3)CCC4)c2c1; 99%
CCCCc1ccc(NC(=O)COc2cc(C)nc3ccc(OC)cc23)cc1; 105%
COc1ccc2nc(C)cc(OCC(=O)Nc3ccc(C)cc3)c2c1; 100%
COc1ccc2nc(C)cc(OCC(=O)Nc3ccc(C)c(C)c3)c2c1; 94%
CCCCCc1ccc(NC(=O)COc2cc(C)nc3ccc(OC)cc23)cc1; 105%
COc1ccc2nc(C)cc(OCC(=O)Nc3ccc4c(c3)CCCC4)c2c1; 95%
CCc1ccc(NC(=O)COc2cc(C)nc3ccc(OC)cc23)cc1; 96%

meta.source: ChEMBL document CHEMBL4002573
